# assay remarks: xn = mol fraction of the nth substance listed
# measurement context: 298.15 K, Pendant drop shape, x2 = 0.9002
± gives the expanded uncertainty stated by the source.
measured attribute: surface tension liquid-gas
Answers without a unit are incomplete; give the number and then its unit.

Name the reported surface tension liquid-gas value associated with the compound Cc1cc(C)cc(C)c1 [1,3,5-trimethylbenzene] + CCC(C)O 23.94 ± 0.26 mN/m

Entry Cc1cc(C)cc(C)c1 [1,3,5-trimethylbenzene] + CC(C)(C)O : reported surface tension liquid-gas = ? 20.86 ± 0.24 mN/m

Reported surface tension liquid-gas for Cc1ccc(C)c(C)c1 [1,2,4-trimethylbenzene] + CCCCO : what is it? 24.86 ± 0.27 mN/m

Could you tell me which surface tension liquid-gas is on file for Cc1ccc(C)c(C)c1 [1,2,4-trimethylbenzene] + CCC(C)O ? 24.02 ± 0.26 mN/m

Cited source for all entries: the NIST ThermoML archive (doi:10.1021/je049807n)
